The origin of these recorded values is ChEMBL document CHEMBL1134284.

Please respond with reported IC50 for every item in the list.
Experimental Details: Antiviral activity against multi drug resistant MDR 769 strain in PBLs (peripheral blood lymphocytes)
Format: functional, cell-based
Stated Conditions: Homo sapiens
Remember to quote the unit after the number.

CCOC(=O)CCCC=C(c1cc(Cl)c(OC)c(C(=O)OC)c1)c1cc(Cl)c(OC)c(C(=O)OC)c1; 45.2 µM
COC(=O)CCCC=C(c1cc(Br)c(OC)c(C(=O)OC)c1)c1cc(Br)c(OC)c(C(=O)OC)c1; 48.8 µM
Cc1cn([C@H]2C[C@H](N=[N+]=[N-])[C@@H](CO)O2)c(=O)[nH]c1=O; 0.025 µM
CCOC(=O)CCCC=C(c1cc(Br)c(OC)c(C(=O)OC)c1)c1cc(Br)c(OC)c(C(=O)OC)c1; 6.3 µM

Next, consider the following molecule.
stdin: For the molecule COC(=O)CCCC=C(c1cc(Cl)c(OC)c(C(=O)OC)c1)c1cc(Cl)c(OC)c(C(=O)OC)c1 , report IC50.
stdout: 16.9 µM

====

Experimental Details: Antiviral activity against subtype isolate F strain in PBLs (peripheral blood lymphocytes)
Format: functional, cell-based, Homo sapiens
Experimental Readout: IC50 (nM)
One number for each entry, in nM.

stdin: Fill in reported IC50 for this entry: COC(=O)CCCC=C(c1cc(Br)c(OC)c(C(=O)OC)c1)c1cc(Br)c(OC)c(C(=O)OC)c1
stdout: 1900

====

Provide the reported pIC50 of each item.
Test System: UniProt:Q72547
Experimental Details: Inhibitory activity against HIV-1 Reverse Transcriptase with rCdG as the template primer
One number for each entry, as −log10 of the molar value.

Solved cases below.
COC(=O)c1cc(C(=CCCNC(=O)OCC(C)C)c2cc(Cl)c(OC)c(C(=O)OC)c2)cc(Cl)c1OC; 4.18
COC(=O)c1cc(C(=CCCCC(=O)OC(C)C)c2cc(C)c(OC)c(C(=O)OC)c2)cc(C)c1OC; 4.22
COC(=O)c1cc(C(=CCCNC(=O)OCC(C)C)c2cc(C)c(OC)c(C(=O)OC)c2)cc(C)c1OC; 5.53
COC(=O)c1cc(C(=CCCN2CCOC2=O)c2cc(Br)c(OC)c(C(=O)OC)c2)cc(Br)c1OC; 6.30
COC(=O)NCCC=C(c1cc(C)c(OC)c(C(=O)OC)c1)c1cc(C)c(OC)c(C(=O)OC)c1; 5.31
CCCOC(=O)CCCC=C(c1cc(Cl)c(OC)c(C(=O)OC)c1)c1cc(Cl)c(OC)c(C(=O)OC)c1; 5.08
COC(=O)NCCC=C(c1cc(Br)c(OC)c(C(=O)OC)c1)c1cc(Br)c(OC)c(C(=O)OC)c1; 5.62
CCOC(=O)NCCC=C(c1cc(C)c(OC)c(C(=O)OC)c1)c1cc(C)c(OC)c(C(=O)OC)c1; 7.80
CCCOC(=O)CCCC=C(c1cc(C)c(OC)c(C(=O)OC)c1)c1cc(C)c(OC)c(C(=O)OC)c1; 4.53
COC(=O)c1cc(C(=CCCCC(=O)OC(C)C)c2cc(Br)c(OC)c(C(=O)OC)c2)cc(Br)c1OC; 4.15

For every listed record, write down its pIC50.
1. CCOC(=O)CCCC=C(c1cc(Cl)c(OC)c(C(=O)OC)c1)c1cc(Cl)c(OC)c(C(=O)OC)c1
2. CCOC(=O)NCCC=C(c1cc(Cl)c(OC)c(C(=O)OC)c1)c1cc(Cl)c(OC)c(C(=O)OC)c1

stdout:
1: 6.63; 2: 5.71

====

Would you mind telling me the reported pIC50 of each entry?
Tested on: CCRF-CEM
Experimental Details: Antiviral activity against site directed resistant isolate HIV-1 K101E in CEM cells
Assay type: functional, cell-based, Homo sapiens
Answers are plain numbers, as −log10 of the molar value.

Recorded pIC50, per entry:
Cc1ccnc2c1NC(=O)c1cccnc1N2C1CC1; 8.30
CCOC(=O)CCCC=C(c1cc(Br)c(OC)c(C(=O)OC)c1)c1cc(Br)c(OC)c(C(=O)OC)c1; 6.02
Cc1cn([C@H]2C[C@H](N=[N+]=[N-])[C@@H](CO)O2)c(=O)[nH]c1=O; 7.34

Would you be so kind as to report pIC50 for each listed record?
1. CCOC(=O)CCCC=C(c1cc(Cl)c(OC)c(C(=O)OC)c1)c1cc(Cl)c(OC)c(C(=O)OC)c1
2. COC(=O)CCCC=C(c1cc(Br)c(OC)c(C(=O)OC)c1)c1cc(Br)c(OC)c(C(=O)OC)c1
3. COC(=O)CCCC=C(c1cc(Cl)c(OC)c(C(=O)OC)c1)c1cc(Cl)c(OC)c(C(=O)OC)c1

stdout:
6.79
6.23
6.44

====

Experimental Details: Antiviral activity against subtype isolate B strain in PBLs (peripheral blood lymphocytes)
Format: ADME, cell-based
Stated Conditions: human, read-out: TC50 (the source's name)
Experimental Readout: CC50

stdin: Write down CC50 measured for item Cc1cn([C@H]2C[C@H](N=[N+]=[N-])[C@@H](CO)O2)c(=O)[nH]c1=O
stdout: > 200 µM

====

Experimental Details: Ratio of CC50/EC50 was determined
Assay type: cell-based
Stated Conditions: human, CEM-SS cells; read-out: TI
Experimental Readout: selectivity ratio
Answers are plain numbers.

Answered cases to consult:
CCSC(=O)CCCC=C(c1cc(Cl)c(OC)c(C(=O)OC)c1)c1cc(Cl)c(OC)c(C(=O)OC)c1; 3.2
CCOC(=O)CCCC=C(c1cc(C)c(OC)c(C(=O)OC)c1)c1cc(C)c(OC)c(C(=O)OC)c1; 297

// moving on: another record for selectivity ratio
stdin: Query selectivity ratio for COC(=O)CCCC=C(c1cc(C(=O)OC)c(OC)c(C(F)(F)F)c1)c1cc(C(=O)OC)c(OC)c(C(F)(F)F)c1
stdout: 1.2

====

Experimental Details: Antiviral activity against subtype isolate E strain in PBLs (peripheral blood lymphocytes)
Format: ADME, cell-based
Stated Conditions: human, read-out: TC50 (the source's name)
Experimental Readout: CC50

stdin: Name the recorded CC50 of the item Cc1cn([C@H]2C[C@H](N=[N+]=[N-])[C@@H](CO)O2)c(=O)[nH]c1=O in your answer.
stdout: > 170 µM

====

Test system: CCRF-CEM
Experimental Details: Antiviral activity against site directed wild-type enzyme isolate HIV-1 NL4-3WT in CEM cells
Type: functional, cell-based
Stated Conditions: Homo sapiens
Experimental Readout: pIC50
One number for each entry, as −log10 of the molar value.

COC(=O)CCCC=C(c1cc(Br)c(OC)c(C(=O)OC)c1)c1cc(Br)c(OC)c(C(=O)OC)c1; 6.40
Cc1cn([C@H]2C[C@H](N=[N+]=[N-])[C@@H](CO)O2)c(=O)[nH]c1=O; 7.77
COC(=O)CCCC=C(c1cc(Cl)c(OC)c(C(=O)OC)c1)c1cc(Cl)c(OC)c(C(=O)OC)c1; 6.07
CCOC(=O)CCCC=C(c1cc(Br)c(OC)c(C(=O)OC)c1)c1cc(Br)c(OC)c(C(=O)OC)c1; 6.36
Cc1ccnc2c1NC(=O)c1cccnc1N2C1CC1; 7.54

Here is the next item to consider.
stdin: Please give measured pIC50 of the following entry: CCOC(=O)CCCC=C(c1cc(Cl)c(OC)c(C(=O)OC)c1)c1cc(Cl)c(OC)c(C(=O)OC)c1
stdout: 6.24

====

Experimental Details: Antiviral activity against subtype isolate O strain in PBLs (peripheral blood lymphocytes)
Type: ADME, cell-based
Stated Conditions: human, read-out: TC50 (the source's name)
Experimental Readout: CC50

stdin: Assign CC50 to the following record: Cc1cn([C@H]2C[C@H](N=[N+]=[N-])[C@@H](CO)O2)c(=O)[nH]c1=O
stdout: > 170 µM

====

Test System: Human immunodeficiency virus type 1 reverse transcriptase (Human immunodeficiency virus 1)
Kindly supply the reported IC50 values for the records listed here.

These solved cases illustrate the format of a correct answer.
CCCCCC=C(c1cc(C)c(OC)c(C(=O)OC)c1)c1cc(C)c(OC)c(C(=O)OC)c1; 1 µM
CCOC(=O)CCCC=C(c1cc(C)c(OC)c(C(=O)OC)c1)c1cc(C)c(OC)c(C(=O)OC)c1; 0.181 µM
COC(=O)c1cc(C(=CCCCC(=O)N(C)C)c2cc(C)c(OC)c(C(=O)OC)c2)cc(C)c1OC; 5.65 µM

# return IC50 for each item in the list
1. C=CCCCC=C(c1cc(Cl)c(OC)c(C(=O)OC)c1)c1cc(Cl)c(OC)c(C(=O)OC)c1
2. CCCOC(=O)CCCC=C(c1cc(Br)c(OC)c(C(=O)OC)c1)c1cc(Br)c(OC)c(C(=O)OC)c1
3. COC(=O)c1cc(C(=CCCCC(=O)OC(C)C)c2cc(Cl)c(OC)c(C(=O)OC)c2)cc(Cl)c1OC
4. COC(=O)c1cc(C(=CCCCSC)c2cc(Cl)c(OC)c(C(=O)OC)c2)cc(Cl)c1OC

stdout:
258 µM
9.15 µM
> 100 µM
> 100 µM
